testProtocol: small-molecule microarray binders of probe aShh, primary screen, biochemical, biotinylated probe, 635/667 nm fluorescence (AID 1114);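 note: probe is biotin-labelled aShh protein from a stem cell growth factor screen; measures binding of labelled protein to compounds printed on the slide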
measurementConditions: higher = more signal
Mark fulfilled for reported composite z-score of 0.005 or greater; mark not fulfilled for anything smaller.

| molecule | cat |
| --- | --- |
| C=CCC(OC(C)=O)[C@@H]1[C@@H](N(Cc2cc3ccccc3o2)C(=O)c2ccc(-c3ccccc3)cc2)c2cc(OCCCO)ccc2N1C(=O)c1ccc2ccccc2c1 (stereo partly drawn) | not fulfilled |
| COC(=O)[C@H](Cc1ccccc1)N1CC(/C=C/C2CC2)=C[C@H]1[C@H](O)Cc1ccccc1 | not fulfilled |
| COC(=O)[C@@]1(Cc2ccc(OC)cc2)[C@@H]2C(=CC(=O)[C@H]2CC(=O)C(=O)N(C)C)CN1C(=O)c1ccccc1 | fulfilled |
| COc1ccccc1CN1C(=O)c2ccccc2[C@](Cc2ccccc2I)(C(=O)NCC(F)(F)F)[C@@H]1c1ccc(CO)cc1 | not fulfilled |
| CO[C@H]1O[C@H](CO)[C@@H](OC(=O)Nc2ccc3c(c2)OCO3)[C@H](OC(=O)c2cc3ccccc3[nH]2)[C@H]1OC(=O)c1cc2ccccc2[nH]1 | not fulfilled |
| CO[C@]12C=C(Br)[C@@H](C[C@@H]1c1cccc(C)c1)[C@@]1(CO1)C2=O | not fulfilled |
| CN(C)CCCNC(=O)[C@@]1(C)c2ccccc2C(=O)N(Cc2ccccc2)[C@H]1c1ccc(CO)cc1 | not fulfilled |
| COc1ccc(-c2nc(-c3ccccc3)c3c(c2C)CO[Si]3(C(C)C)C(C)C)cn1 | fulfilled |
| COCCCNC(=O)[C@]1(CCS(=O)(=O)c2ccccc2)N=C(c2ccc(OCCCO)cc2)O[C@@H]1c1ccccc1CN=[N+]=[N-] | fulfilled |
| COC(=O)[C@@]1(Cc2ccc(F)cc2)[C@H]2c3cc(C(=O)N4CCCC4)n(CCN4CNCC4=O)c3C[C@H]2CN1C(=O)c1ccccc1 | fulfilled |

Q) Answer whether composite z-score of C=CCC(OC(C)=O)[C@@H]1[C@@H](N(Cc2cc3ccccc3o2)C(=O)c2ccc(C)cc2)c2cc(OCCCO)ccc2N1C(=O)Cc1ccc(OC)cc1 (stereo partly drawn) is greater than or equal to 0.005.
A) fulfilled

Q) Please do the same for CN1C(=O)C2C=CC(C(O)c3cccc4ccccc34)N(N3CCCCC3)C2C1=O (stereo not drawn) as well.
A) not fulfilled

Q) Try this molecule next: `COCCOC(=O)N1C(=O)[C@@]2(c3cc(C#CCNC(N)=O)ccc31)[C@H](C(=O)N1CCc3cc(OC)c(OC)cc3C1)[C@H]1C(=O)O[C@H](c3ccccc3)[C@H](c3ccccc3)N1[C@@H]2c1ccccc1OCCO`
A) not fulfilled

Q) Please give the result for `COc1ccc([Si](C)(C)[C@@H]2[C@@H](CC(=O)N(CCO)Cc3ccccc3)O[C@]3(C(=O)N(Cc4cccc(N5CCOC5=O)c4)c4ccccc43)[C@H]2C)cc1` too.
A) not fulfilled

Q) Try `COC(=O)Cn1c(C(=O)N(C)C)cc2c1C[C@H]1CN(C(=O)c3ccccc3)[C@@](Cc3ccc(F)cc3)(C(=O)OC)[C@@H]21` next.
A) fulfilled

Q) Next up: `O=C(CS)NCCCCCNC(=O)[C@@H]1C[C@@H]2C(=O)N3CCC[C@H]3C(=O)N2[C@@H]1c1cccc(OCCO)c1`
A) not fulfilled

Q) Param item: CN(C)c1ccc(C(O)C2C=CC3C(=O)N(c4ccccc4)C(=O)C3N2Nc2ccc([N+](=O)[O-])cc2)cc1 (stereo not drawn)
A) fulfilled

Q) Can you handle `CCOC(=O)C1=C[C@@H](c2ccccc2)N(S(=O)(=O)c2ccc(C)cc2)[C@H]1c1ccccc1Cl` next?
A) fulfilled
